Value source: patent US4563452A

# System: oedema produced by carrageenin
# Assay Details: Anti-inflammatory activity (inhibition of oedema produced by carrageenin), method of Winter
# Type: in vivo, Male rats of the Sprague-Dawley HC/CEY strain
# Run Conditions: Rattus norvegicus; 3 hours after carrageenin injection; oral, 1 hour before carrageenin; ED-50 = dose which reduces the oedema volume by 25%; read-out: ED-50 3 hours
Parameter Measured: ED50 (mg/kg)
Numeric answer only, unit mg/kg assumed.

In [3]: df
Out[3]:
                                   compound   unit  recorded_result
0  CN1c2c(oc(=O)n(-c3ccccn3)c2=O)-c2ccccc2S1(=O)=O  mg/kg              2.3

// query Look up ED50: CCCCC1C(=O)N(c2ccccc2)N(c2ccccc2)C1=O [Phenylbutazone, reference compound]
// result 17

// query Look up ED50: Cc1cc(-n2c(=O)oc3c(c2=O)N(C)S(=O)(=O)c2ccccc2-3)no1
// result 38

// query Look up ED50: Cc1cccc(-n2c(=O)oc3c(c2=O)N(C)S(=O)(=O)c2ccccc2-3)n1
// result 20

----------
# System: pain induced by acetyl choline
# Assay Details: Analgesic activity with respect to the pain induced by acetyl choline (contortions), method of Collier
# Type: in vivo, Male mice of the Swiss strain
# Run Conditions: Mus musculus, po, 2 h; 120 minutes after administration; dose which reduces the number of contortions to half the initial value; read-out: ED-50 120 min.
Parameter Measured: ED50 (mg/kg)
Numeric answer only, unit mg/kg assumed.

// query Look up ED50: CCCCC1C(=O)N(c2ccccc2)N(c2ccccc2)C1=O [Phenylbutazone, reference compound]
// result 35

// query Look up ED50: CN1c2c(oc(=O)n(-c3ccccn3)c2=O)-c2ccccc2S1(=O)=O
// result 1.1

// query Look up ED50: Cc1cccc(-n2c(=O)oc3c(c2=O)N(C)S(=O)(=O)c2ccccc2-3)n1
// result 10
